TARGET: hERG potassium ion channel (Homo sapiens, UniProt Q12809)
Sequence (Q12809 whole entry): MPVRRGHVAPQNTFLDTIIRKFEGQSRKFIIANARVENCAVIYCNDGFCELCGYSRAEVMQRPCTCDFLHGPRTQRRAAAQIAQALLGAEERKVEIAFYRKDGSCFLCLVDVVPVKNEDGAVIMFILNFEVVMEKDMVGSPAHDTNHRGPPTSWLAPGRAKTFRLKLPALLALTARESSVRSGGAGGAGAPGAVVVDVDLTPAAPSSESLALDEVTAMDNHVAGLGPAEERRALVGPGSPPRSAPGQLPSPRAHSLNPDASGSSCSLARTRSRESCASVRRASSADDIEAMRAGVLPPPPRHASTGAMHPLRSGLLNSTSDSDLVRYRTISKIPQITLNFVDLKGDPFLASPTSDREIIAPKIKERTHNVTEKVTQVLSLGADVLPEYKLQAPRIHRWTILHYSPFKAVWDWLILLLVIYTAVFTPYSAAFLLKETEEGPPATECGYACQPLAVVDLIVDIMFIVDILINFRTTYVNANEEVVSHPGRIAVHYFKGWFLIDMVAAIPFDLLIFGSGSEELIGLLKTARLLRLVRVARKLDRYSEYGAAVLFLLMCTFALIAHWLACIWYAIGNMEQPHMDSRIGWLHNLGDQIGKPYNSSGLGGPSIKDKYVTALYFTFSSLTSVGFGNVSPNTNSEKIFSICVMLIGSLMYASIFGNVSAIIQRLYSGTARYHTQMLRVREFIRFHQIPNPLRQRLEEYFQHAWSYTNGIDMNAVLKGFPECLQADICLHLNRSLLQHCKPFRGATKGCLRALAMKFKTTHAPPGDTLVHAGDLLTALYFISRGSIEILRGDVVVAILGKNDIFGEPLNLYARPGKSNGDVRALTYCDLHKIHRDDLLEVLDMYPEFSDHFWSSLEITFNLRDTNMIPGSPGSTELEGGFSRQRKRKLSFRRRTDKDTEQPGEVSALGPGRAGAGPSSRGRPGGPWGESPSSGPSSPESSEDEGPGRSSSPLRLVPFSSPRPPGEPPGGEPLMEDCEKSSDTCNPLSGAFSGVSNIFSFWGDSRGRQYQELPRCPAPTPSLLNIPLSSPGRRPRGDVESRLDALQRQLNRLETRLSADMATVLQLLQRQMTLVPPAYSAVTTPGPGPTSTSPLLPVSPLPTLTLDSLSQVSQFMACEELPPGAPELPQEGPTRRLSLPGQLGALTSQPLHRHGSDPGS
EXPERIMENT DESCRIPTION: hERG patch clamp assay (% inhibition at 10 μM)
TEST CONDITIONS: % inhibition at 10 μM, patch clamp
We use 50% as the dividing line for hERG: on or above the line is yes (1), below is no (0).

{"COMPOUND": "CN1CCCC1CCNc1nc(Nc2ccccc2N2CCOCC2)nc(C(Cl)(Cl)Cl)n1 (centres unmarked)", "TARGET": "hERG potassium ion channel (Homo sapiens, UniProt Q12809)", "CLASS": "yes (1)"}
{"COMPOUND": "ClC(Cl)(Cl)c1nc(NCCN2CCCC2)nc(-c2ccc(-c3ccccc3)cc2)n1", "TARGET": "hERG potassium ion channel (Homo sapiens, UniProt Q12809)", "CLASS": "yes (1)"}
{"COMPOUND": "CN1CCN(c2nc(-c3ccc(-c4ccccc4)cc3)nc(C(Cl)(Cl)Cl)n2)CC1", "TARGET": "hERG potassium ion channel (Homo sapiens, UniProt Q12809)", "CLASS": "no (0)"}
{"COMPOUND": "COc1cccc(-c2nc(NC3CCN(C)CC3)nc(C(Cl)(Cl)Cl)n2)c1", "TARGET": "hERG potassium ion channel (Homo sapiens, UniProt Q12809)", "CLASS": "yes (1)"}
{"COMPOUND": "CN1CCCN(c2nc(-c3cc(Cl)cc(Cl)c3)nc(C(Cl)(Cl)Cl)n2)CC1", "TARGET": "hERG potassium ion channel (Homo sapiens, UniProt Q12809)", "CLASS": "no (0)"}
{"COMPOUND": "CN1CCCC1CCNc1nc(-c2ccc(Cl)cc2)nc(C(Cl)(Cl)Cl)n1 (centres unmarked)", "TARGET": "hERG potassium ion channel (Homo sapiens, UniProt Q12809)", "CLASS": "yes (1)"}
{"COMPOUND": "CC(C)(N)CNc1nc(-c2cc(Cl)cc(Cl)c2)nc(C(Cl)(Cl)Cl)n1", "TARGET": "hERG potassium ion channel (Homo sapiens, UniProt Q12809)", "CLASS": "no (0)"}
{"COMPOUND": "COc1ncccc1Nc1nc(NC2CC(C)(C)NC(C)(C)C2)nc(C(Cl)(Cl)Cl)n1", "TARGET": "hERG potassium ion channel (Homo sapiens, UniProt Q12809)", "CLASS": "yes (1)"}
{"COMPOUND": "CN1CCN(c2nc(-c3ccc(Cl)cc3)nc(C(Cl)(Cl)Cl)n2)CC1", "TARGET": "hERG potassium ion channel (Homo sapiens, UniProt Q12809)", "CLASS": "no (0)"}
{"COMPOUND": "CC(C)(N)CNc1nc(-c2cccc(C(F)(F)F)c2)nc(C(Cl)(Cl)Cl)n1", "TARGET": "hERG potassium ion channel (Homo sapiens, UniProt Q12809)", "CLASS": "no (0)"}
{"COMPOUND": "COc1ccc(-c2nc(NC3CC(C)(C)NC(C)(C)C3)nc(C(Cl)(Cl)Cl)n2)cc1OC", "TARGET": "hERG potassium ion channel (Homo sapiens, UniProt Q12809)", "CLASS": "no (0)"}
{"COMPOUND": "COc1ccccc1Nc1nc(N2CCN(C)CC2)nc(C(Cl)(Cl)Cl)n1", "TARGET": "hERG potassium ion channel (Homo sapiens, UniProt Q12809)", "CLASS": "yes (1)"}
{"COMPOUND": "ClC(Cl)(Cl)c1ccc(-c2nc(NCCN3CCCC3)nc(C(Cl)(Cl)Cl)n2)cc1", "TARGET": "hERG potassium ion channel (Homo sapiens, UniProt Q12809)", "CLASS": "no (0)"}
{"COMPOUND": "CCN1CCCC(Nc2nc(-c3ccc(C)cc3)nc(C(Cl)(Cl)Cl)n2)C1 (centres unmarked)", "TARGET": "hERG potassium ion channel (Homo sapiens, UniProt Q12809)", "CLASS": "yes (1)"}
{"COMPOUND": "CC(C)(N)CNc1nc(-c2ccc(C(Cl)(Cl)Cl)cc2)nc(C(Cl)(Cl)Cl)n1", "TARGET": "hERG potassium ion channel (Homo sapiens, UniProt Q12809)", "CLASS": "no (0)"}
{"COMPOUND": "ClC(Cl)(Cl)c1nc(NCCN2CCCC2)nc(-c2ccc(OCc3ccccc3)cc2)n1", "TARGET": "hERG potassium ion channel (Homo sapiens, UniProt Q12809)", "CLASS": "yes (1)"}
{"COMPOUND": "Cc1ccccc1-c1nc(NCCN2CCCC2)nc(C(Cl)(Cl)Cl)n1", "TARGET": "hERG potassium ion channel (Homo sapiens, UniProt Q12809)", "CLASS": "yes (1)"}
{"COMPOUND": "Cc1ccc(-c2nc(N3CCCNCC3)nc(C(Cl)(Cl)Cl)n2)cc1", "TARGET": "hERG potassium ion channel (Homo sapiens, UniProt Q12809)", "CLASS": "no (0)"}
{"COMPOUND": "CCN(CC)CCNc1nc(Cc2ccccc2OC)nc(C(Cl)(Cl)Cl)n1", "TARGET": "hERG potassium ion channel (Homo sapiens, UniProt Q12809)", "CLASS": "yes (1)"}
